Reference source: patent EP0511845B1

I'd appreciate it if you could supply control of southern armyworm after six days on sorghum values for the items below.
Tested on: Spodoptera eridania
protocol.notes: Southern armyworm on sorghum - systemic evaluation (soil drench)
Type: in vivo
condition: systemic via root uptake, 20 ppm soil concentration dose (and subsequent dilutions), six days

structure.smiles.string: N#Cc1nn(-c2c(Cl)cc(C(F)(F)F)cc2Cl)c(N=Cc2ncc[nH]2)c1SC(F)(F)F
test.value: 30-100%
--
structure.smiles.string: N#Cc1nn(-c2c(Cl)cc(C(F)(F)F)cc2Cl)c(N=Cc2ccc(O)c(Br)c2)c1SC(F)(F)F
test.value: 30-100%

Now turn to the next molecule.
input: Look up control of southern armyworm after six days on sorghum: CCCCCCCC(=O)Oc1ccc(C=Nc2c(SC(F)(F)F)c(C#N)nn2-c2c(Cl)cc(C(F)(F)F)cc2Cl)cc1OC
output: 30-100%
